biological target: Thromboxane A2 receptor (Homo sapiens, UniProt P21731); format: functional, cell-based; further: assay procedure not described here
Sequence (P21731 whole entry): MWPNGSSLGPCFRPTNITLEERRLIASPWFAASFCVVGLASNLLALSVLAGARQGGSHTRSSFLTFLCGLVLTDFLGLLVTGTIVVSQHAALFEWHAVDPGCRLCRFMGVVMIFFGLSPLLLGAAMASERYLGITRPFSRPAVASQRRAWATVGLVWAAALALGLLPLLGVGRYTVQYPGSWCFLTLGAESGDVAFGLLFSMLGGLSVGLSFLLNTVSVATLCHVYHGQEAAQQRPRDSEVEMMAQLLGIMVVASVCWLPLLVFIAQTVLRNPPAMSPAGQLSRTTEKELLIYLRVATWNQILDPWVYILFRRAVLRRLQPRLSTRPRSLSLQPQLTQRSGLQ
REPORTED_ENDPOINT: AC50

COMPOUND	TESTED_TARGET	AC50
CCOC(=O)/C=C1\SC(N2CCCCC2)C(=O)N1C (centres undefined) [ETOZOLIN]	Thromboxane A2 receptor (Homo sapiens, UniProt P21731)	> 30 µM

For COC(c1ccccc1)(c1ccccc1)[C@H](Oc1nc(C)cc(C)n1)C(=O)O [AMBRISENTAN] the compound record lists AC50 as > 30 µM

For CC[C@@H](C(N)=O)N1CCCC1=O the compound record lists AC50 as > 30 µM

For CC(=O)Nc1ccc(O)cc1 [ACETAMINOPHEN] the compound record lists AC50 as > 30 µM

For CN1CCN(C2=Nc3ccccc3Sc3ccc(Cl)cc32)CC1 [CLOTHIAPINE] the compound record lists AC50 as > 10 µM

For NC1=NCC2c3ccccc3Cc3ccccc3N12 (centres undefined) [EPINASTINE] the compound record lists AC50 as > 30 µM

---

biological target: 5-hydroxytryptamine receptor 2B (Homo sapiens); format: functional, cell-based; further: assay procedure not described here
Sequence (P41595 whole entry): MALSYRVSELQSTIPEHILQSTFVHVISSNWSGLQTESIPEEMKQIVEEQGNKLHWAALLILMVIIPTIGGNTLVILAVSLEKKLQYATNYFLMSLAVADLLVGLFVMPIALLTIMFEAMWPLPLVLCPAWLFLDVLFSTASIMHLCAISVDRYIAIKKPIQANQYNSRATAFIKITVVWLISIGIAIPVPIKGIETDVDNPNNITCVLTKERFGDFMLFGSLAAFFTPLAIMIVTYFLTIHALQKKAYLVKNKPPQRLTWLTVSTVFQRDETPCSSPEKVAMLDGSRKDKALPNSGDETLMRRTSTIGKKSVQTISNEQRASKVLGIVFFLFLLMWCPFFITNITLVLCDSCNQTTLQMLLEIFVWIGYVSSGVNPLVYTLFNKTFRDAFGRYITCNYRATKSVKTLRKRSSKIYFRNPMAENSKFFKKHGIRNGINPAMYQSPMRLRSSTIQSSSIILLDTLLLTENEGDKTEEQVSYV
Below is a list of entries, each paired with its recorded AC50 value.

MOLECULE	AC50
COC(=O)C1=C(C)NC(C)=C(C(=O)OC(C)(C)CN(C)CCC(c2ccccc2)c2ccccc2)C1c1cccc([N+](=O)[O-])c1 (configuration not stated)	> 30 µM
C[C@H](CSC(=O)c1ccccc1)C(=O)N1C[C@@H](Sc2ccccc2)C[C@H]1C(=O)O	> 10 µM
COC(=O)C1=C(C)NC(C)=C(C(=O)OC2CCCN(Cc3ccccc3)C2)C1c1cccc([N+](=O)[O-])c1 (configuration not stated)	> 30 µM
COc1cc2nc(N3CCN(C(=O)c4ccco4)CC3)nc(N)c2cc1OC	26 µM
CN1CCN(CC/C=C2/c3ccccc3Sc3ccc(S(=O)(=O)N(C)C)cc32)CC1	4.9 µM

Recorded AC50 for O=C1C(O)=C([C@H]2CC[C@H](c3ccc(Cl)cc3)CC2)C(=O)c2ccccc21 on 5-hydroxytryptamine receptor 2B (Homo sapiens) was > 30 µM

Recorded AC50 for CC(C(=O)O)c1ccc(N2Cc3ccccc3C2=O)cc1 (configuration not stated) on 5-hydroxytryptamine receptor 2B (Homo sapiens) was > 30 µM

Recorded AC50 for c1ccc([C@H]2CN3CCSC3=N2)cc1 on 5-hydroxytryptamine receptor 2B (Homo sapiens) was > 30 µM

---

Target: 5-hydroxytryptamine receptor 3A (Homo sapiens); further: assay procedure not described here
Sequence (P46098 whole entry): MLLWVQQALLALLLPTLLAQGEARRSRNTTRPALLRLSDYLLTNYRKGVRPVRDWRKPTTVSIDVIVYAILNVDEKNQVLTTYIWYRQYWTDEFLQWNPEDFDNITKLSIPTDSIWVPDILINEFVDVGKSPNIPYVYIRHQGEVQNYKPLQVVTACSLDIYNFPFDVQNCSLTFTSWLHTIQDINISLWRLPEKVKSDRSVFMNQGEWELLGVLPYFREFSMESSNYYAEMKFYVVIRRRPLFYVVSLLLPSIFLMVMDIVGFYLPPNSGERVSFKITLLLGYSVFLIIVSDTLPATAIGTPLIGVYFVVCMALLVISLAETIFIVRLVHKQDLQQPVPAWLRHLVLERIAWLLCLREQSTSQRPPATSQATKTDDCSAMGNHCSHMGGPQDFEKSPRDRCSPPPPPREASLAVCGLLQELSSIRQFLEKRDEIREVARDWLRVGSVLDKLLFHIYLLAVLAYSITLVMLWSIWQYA
Type: functional
Below is a list of entries, each paired with its recorded AC50 value.

Completed entries (count: 6):
COMPOUND	ASSAY_VALUE
CCCCc1ncc(/C=C(\Cc2cccs2)C(=O)O)n1Cc1ccc(C(=O)O)cc1 [EPROSARTAN]	> 10 µM
Cc1oc(=O)oc1CN1CCN(c2cc3c(cc2F)c(=O)c(C(=O)O)c2n3C(C)S2)CC1 (stereo not drawn) [PRULIFLOXACIN]	> 30 µM
CCC(C(=O)O)c1ccc(N2Cc3ccccc3C2=O)cc1 (stereo not drawn) [INDOBUFEN]	> 30 µM
NS(=O)(=O)Cc1noc2ccccc12 [ZONISAMIDE]	> 30 µM
Cc1cn([C@H]2C=C[C@@H](CO)O2)c(=O)[nH]c1=O [STAVUDINE]	> 10 µM
CC(=O)O[C@H]1CC[C@@]2(C)C(=CC[C@@H]3[C@@H]2CC[C@]2(C)C(c4cccnc4)=CC[C@@H]32)C1 [ABIRATERONE ACETATE]	> 30 µM

Recorded AC50 for C/C(O)=C(\C#N)C(=O)Nc1ccc(C(F)(F)F)cc1 [TERIFLUNOMIDE] on 5-hydroxytryptamine receptor 3A (Homo sapiens) was > 30 µM

Recorded AC50 for CCN1CCN(C(=O)N[C@@H](C(=O)N[C@@H]2C(=O)N3C(C(=O)O)=C(CSc4nnnn4C)CS[C@H]23)c2ccc(O)cc2)C(=O)C1=O [CEFOPERAZONE] on 5-hydroxytryptamine receptor 3A (Homo sapiens) was > 30 µM

---

molecular target: Alpha-1A adrenergic receptor (Homo sapiens); assay type: functional, cell-based; further: assay procedure not described here
Sequence (P35348 whole entry): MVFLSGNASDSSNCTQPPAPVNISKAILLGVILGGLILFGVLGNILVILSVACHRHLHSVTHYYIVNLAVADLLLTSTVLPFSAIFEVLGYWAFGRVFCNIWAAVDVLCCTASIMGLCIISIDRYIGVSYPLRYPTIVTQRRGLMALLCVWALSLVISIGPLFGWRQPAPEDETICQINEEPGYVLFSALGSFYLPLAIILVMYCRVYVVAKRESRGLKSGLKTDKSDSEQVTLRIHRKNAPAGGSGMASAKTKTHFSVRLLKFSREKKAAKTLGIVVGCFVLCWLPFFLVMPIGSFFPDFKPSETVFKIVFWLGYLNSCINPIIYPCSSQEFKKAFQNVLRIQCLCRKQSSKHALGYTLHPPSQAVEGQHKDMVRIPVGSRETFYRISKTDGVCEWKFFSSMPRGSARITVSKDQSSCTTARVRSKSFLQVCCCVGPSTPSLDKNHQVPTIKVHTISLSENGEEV
REPORTED_ENDPOINT: AC50

COMPOUND	AC50
C[C@H]1CNCCc2ccc(Cl)cc21	> 30 µM

For COc1ccccc1N1CCN(CC(O)COc2cccc3ccccc23)CC1 (stereo not drawn) the compound record lists AC50 as 0.46 µM

For C#C[C@]1(O)CC[C@H]2[C@@H]3CCC4=Cc5oncc5C[C@]4(C)[C@H]3CC[C@@]21C the compound record lists AC50 as > 30 µM

For O=C1C(O)=C([C@H]2CC[C@H](c3ccc(Cl)cc3)CC2)C(=O)c2ccccc21 the compound record lists AC50 as > 30 µM

For O=C(OCC(O)CO)c1ccccc1Nc1ccnc2cc(Cl)ccc12 (stereo not drawn) the compound record lists AC50 as > 30 µM

---

Below is a list of entries, each paired with its recorded AC50 value.
molecular target: UniProt P06401; type: functional
Sequence (P06401 whole entry): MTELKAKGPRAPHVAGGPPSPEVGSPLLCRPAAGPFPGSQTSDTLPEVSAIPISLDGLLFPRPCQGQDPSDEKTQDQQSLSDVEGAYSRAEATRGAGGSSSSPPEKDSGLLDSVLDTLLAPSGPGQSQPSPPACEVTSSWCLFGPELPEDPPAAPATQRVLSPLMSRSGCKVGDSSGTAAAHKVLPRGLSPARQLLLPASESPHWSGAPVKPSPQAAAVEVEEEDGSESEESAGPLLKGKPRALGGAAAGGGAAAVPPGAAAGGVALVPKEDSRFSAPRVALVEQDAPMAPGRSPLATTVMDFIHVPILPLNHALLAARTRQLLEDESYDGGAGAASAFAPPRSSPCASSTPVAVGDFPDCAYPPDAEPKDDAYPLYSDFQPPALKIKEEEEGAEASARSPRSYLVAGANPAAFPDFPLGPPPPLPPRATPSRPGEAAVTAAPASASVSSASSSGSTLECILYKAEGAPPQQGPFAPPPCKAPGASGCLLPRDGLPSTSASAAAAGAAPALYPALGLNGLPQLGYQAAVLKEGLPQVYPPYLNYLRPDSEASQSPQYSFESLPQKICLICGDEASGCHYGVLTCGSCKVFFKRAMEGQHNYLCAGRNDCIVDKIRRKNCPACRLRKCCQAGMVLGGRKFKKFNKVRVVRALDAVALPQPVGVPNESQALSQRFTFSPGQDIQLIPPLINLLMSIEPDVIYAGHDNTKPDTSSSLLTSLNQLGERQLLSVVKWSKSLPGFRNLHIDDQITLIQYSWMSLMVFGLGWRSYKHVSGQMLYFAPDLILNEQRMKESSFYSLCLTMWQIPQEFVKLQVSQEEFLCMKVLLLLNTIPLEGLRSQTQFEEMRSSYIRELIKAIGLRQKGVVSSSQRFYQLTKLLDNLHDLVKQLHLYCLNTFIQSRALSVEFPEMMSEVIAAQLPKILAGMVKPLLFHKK

Completed entries (count: 5):
MOLECULE	REPORTED_ENDPOINT	ASSAY_VALUE
NC(=O)OCC(COC(N)=O)c1ccccc1 [FELBAMATE]	AC50	> 10 µM
CNC(=O)c1ccccc1Sc1ccc2c(/C=C/c3ccccn3)n[nH]c2c1 [AXITINIB]	AC50	> 30 µM
CCC(CC)(CC(=O)Nc1cccc(/C=C/c2nc(C3CCC3)cs2)c1)C(=O)O	AC50	> 30 µM
COc1ccccc1OCC(O)CN1CCN(CC(=O)Nc2c(C)cccc2C)CC1 (centres undefined) [RANOLAZINE]	AC50	> 30 µM
Cc1cc(O)c(C(=O)N[C@@H](C(=O)N[C@@H]2C(=O)N3C(C(=O)O)=C(CSc4nnnn4C)CS[C@H]23)c2ccc(O)cc2)cn1 [CEFPIRAMIDE]	AC50	> 30 µM

For Cc1ccc(-n2nccn2)c(C(=O)N2CCN(c3nc4cc(Cl)ccc4o3)CC[C@H]2C)c1 [SUVOREXANT] the molecule record lists AC50 as > 30 µM

For CCCC(C)C1(CC)C(=O)NC(=O)NC1=O (centres undefined) [PENTOBARBITAL] the molecule record lists AC50 as > 10 µM

For CC(Oc1c(Cl)cccc1Cl)C1=NCCN1 (centres undefined) [LOFEXIDINE] the molecule record lists AC50 as > 30 µM

For O=C1Nc2ccc(Cl)cc2[C@@](C#CC2CC2)(C(F)(F)F)O1 [EFAVIRENZ] the molecule record lists AC50 as 14 µM

For NCC(CC(=O)O)c1ccc(Cl)cc1 (centres undefined) [BACLOFEN] the molecule record lists AC50 as > 30 µM

For CC(C)OC(=O)CCC/C=C\C[C@@H]1[C@@H](CC[C@@H](O)CCc2ccccc2)[C@H](O)C[C@@H]1O [LATANOPROST] the molecule record lists AC50 as > 30 µM

---

Target: Alpha-2C adrenergic receptor (Homo sapiens, UniProt P18825); further: assay procedure not described here
Sequence (P18825 whole entry): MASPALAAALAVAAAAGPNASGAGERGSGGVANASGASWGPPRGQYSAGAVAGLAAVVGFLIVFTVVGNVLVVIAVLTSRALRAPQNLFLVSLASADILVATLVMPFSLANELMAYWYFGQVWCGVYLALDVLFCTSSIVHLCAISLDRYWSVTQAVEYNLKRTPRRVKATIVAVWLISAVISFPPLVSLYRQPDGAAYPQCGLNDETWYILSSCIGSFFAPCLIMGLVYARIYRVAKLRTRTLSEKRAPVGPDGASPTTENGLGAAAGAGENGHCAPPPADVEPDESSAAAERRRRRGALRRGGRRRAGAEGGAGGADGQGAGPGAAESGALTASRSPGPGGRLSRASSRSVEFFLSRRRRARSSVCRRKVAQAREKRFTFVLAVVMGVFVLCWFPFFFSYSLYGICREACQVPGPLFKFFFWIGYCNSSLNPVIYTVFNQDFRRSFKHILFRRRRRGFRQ
Assay type: functional
Below is a list of entries, each paired with its recorded AC50 value.

MOLECULE	TESTED_TARGET	AC50
Nc1nc(NC2CC2)c2ncn([C@H]3C=C[C@@H](CO)C3)c2n1 [ABACAVIR]	Alpha-2C adrenergic receptor (Homo sapiens, UniProt P18825)	> 30 µM
Clc1ccc(C(c2ccccc2Cl)C(Cl)Cl)cc1 (configuration not stated) [MITOTANE]	Alpha-2C adrenergic receptor (Homo sapiens, UniProt P18825)	> 10 µM
CO[C@@H]1[C@@H](O[C@@H]2O[C@H](C)[C@@H](O[C@H]3C[C@@](C)(O)[C@@H](OC(=O)CC(C)C)[C@H](C)O3)[C@H](N(C)C)[C@H]2O)[C@@H](CC=O)C[C@@H](C)[C@@H](O)/C=C/C=C/C[C@@H](C)OC(=O)C[C@H]1OC(C)=O [JOSAMYCIN]	Alpha-2C adrenergic receptor (Homo sapiens, UniProt P18825)	> 10 µM

For Cc1oc(=O)oc1CN1CCN(c2cc3c(cc2F)c(=O)c(C(=O)O)c2n3C(C)S2)CC1 (configuration not stated) [PRULIFLOXACIN] the molecule record lists AC50 as > 30 µM

For N[C@@H]1[C@H]2CN(c3nc4c(cc3F)c(=O)c(C(=O)O)cn4-c3ccc(F)cc3F)C[C@@H]12 [TROVAFLOXACIN] the molecule record lists AC50 as > 30 µM

For CCOC(=O)[N-]c1cn(N2CCOCC2)n[o+]1 [MOLSIDOMINE] the molecule record lists AC50 as > 30 µM

For N#Cc1ccc([C@H]2CCc3cncn32)c(F)c1 [OSILODROSTAT] the molecule record lists AC50 as > 10 µM

For c1ccc([C@H]2CN3CCSC3=N2)cc1 [LEVAMISOLE] the molecule record lists AC50 as > 30 µM

For CC/C(=C(\c1ccccc1)c1ccc(OCCN(C)C)cc1)c1ccccc1 [TAMOXIFEN] the molecule record lists AC50 as > 10 µM

For CC(C)(C)NCC(O)COc1cccc2c1CCC(=O)N2 (configuration not stated) [CARTEOLOL] the molecule record lists AC50 as > 10 µM

For NCC(=O)CCC(=O)O [AMINOLEVULINIC ACID] the molecule record lists AC50 as > 30 µM

The reported numbers originate from ChEMBL document CHEMBL5291721.
